Values compiled from ChEMBL document CHEMBL2095176.

Experiment: physchem
Conditions: phosphate buffered saline, pH 7.4
Rule: 1 (yes) for solubility kinetic not less than 300 µM, 0 (no) for anything less.

compound=Cc1cc(CN2CCC3(CC2)OCCc2sccc23)oc1C label_value="0 (no)"
compound=CCCc1ccc(S(=O)(=O)Nc2ccc(CN3CCN(CC4CC4)CC3)cc2)cc1.O=C(O)C(F)(F)F.O=C(O)C(F)(F)F label_value="1 (yes)"
compound=Cc1nc2ccccn2c1C(=O)NCc1ccc(Cl)cc1 label_value="1 (yes)"
compound="O=C(O)C(F)(F)F.c1ccc2c(-c3ccc(CNCC4CCNC4)cc3)cncc2c1 (stereo not given)" label_value="0 (no)"
compound=Cc1nn(Cc2ccccc2)c(Cl)c1C(=O)NC1CCCCCC1 label_value="0 (no)"
compound=CN1CCN(c2cc(-c3ccncc3)nc(-c3ccccc3)n2)CC1 label_value="1 (yes)"
compound=Cc1ccc2nc(C(F)(F)F)c(C(=O)NCc3cccc(OC(C)C)c3)n2c1 label_value="0 (no)"
compound=CCc1c(C)nc(-n2nc(C)cc2NC(=O)c2ccccc2SC)[nH]c1=O label_value="0 (no)"
compound=C[C@@H](NCCc1nc(-c2cn(C)c3ccccc23)no1)C1CCCCC1.Cl label_value="0 (no)"
compound=Cc1cc(OCC(=O)Nc2ccccc2)c2cc(Br)ccc2n1 label_value="0 (no)"
